experiment: yeast display, Sf9 membrane polyspecificity reagent, FACS + sequencing; frameworks hold sequencing errors
Observed Property: polyreactivity (PSR sort gate)

Some entries whose results are on file:
{"columns": ["Biopolymer Sequence", "polyreactivity (PSR sort gate)"],
 "data": [
  ["QVQLVESGGGLVQAGGSLRLSCAASGRIFYVYAMGWYRQAPGKEREFVAAITRRSGSTYYADSVKGRFTISRDKAKNTVYLQMNSLKPEDTAVYYCNARLKYAFPQVPPYDYWGQGTQVTVSS", "high polyreactivity"],
  ["QVQLQESGGGLVLAGGSLRLSCAESGYISWSFTMGWYRTAPGKERELVAGITYGGITYYADSVKGRFTISRDNAKNTVYLQMNSLKPEDTAVYYCNARKHGQGRNGYGSWGQGTQVTVSS", "high polyreactivity"],
  ["QVQLVESGVGLVQAGGSLRLSCAASGFTFNYNAMGWYRQAPGKERELVADISRSGGSTYYADSVKGRFTISRDNAKNTVYLQMNSLKPEDTPVYYCAAVRAIGKYGYWGHGTQVTVSS", "high polyreactivity"],
  ["QFQLVESGGGLVQAGGSLRLSCAASGRIVGRNAMGWYRQAPGKERELVAAISGNGGSTYYADSVKGRFTISRDNAKINVYLQMNSLKPEDTAVYYCATKYFSRMDYWGKGTQVTVSS", "high polyreactivity"]
]}

What value of measured polyreactivity (PSR sort gate) is listed for `QVQLVESGGGLVQAGGSLRLSCAASGSIFGINAMGWYRQAPGKERELVAAITNSGANTYYADSVKGRFTISRDNAKNTVYLQMNSLKPEDTAVYYCATDFIGVIYDYWGQGTQVTVSS` ?
low polyreactivity

What value of measured polyreactivity (PSR sort gate) is listed for `QVQLVESGGGLVQAGGSLRLSCAASGRTFYPNAMGWYRQAPGKERELVAAITTDGSTYYADSVKGRFTISRDNAKNTVYLQMNSLKPEDTAVYYCAARGFWWPYTYYYWGHGTQVTVSS` ?
high polyreactivity

What value of measured polyreactivity (PSR sort gate) is listed for `QVQLVESGGGLVQAGGSLRLSCAASGITFRGYAMGWYRQAPGKERELVASITNTDSTYYADSVKGRFTISRDNAKNTVYLQMNSLKPEDTAVYYCAARRGRKYGYWGQGTQVTVSS` ?
high polyreactivity

What value of measured polyreactivity (PSR sort gate) is listed for `QVQHVESGGGLVQAGGSLRLSCAASGSTFTDYTMGWYRQAPGIESELVARIRSRGARTYYADSVKGRFTISRDNAKNTVYLQMNSLKPEDTAVYYCNKRWGAHRASPAYDYWGQGTQVTVSS` ?
high polyreactivity

FYI, the data here is from the nanobody polyreactivity screen of Harvey et al. (2022).
